The reader will find reported IC50 values listed item by item below.
# Tested on: T1, soluble human FcRn (shFcRn) (human, UniProt P55899 24-297; P61769 21-119, biotinylated with Sulfo-NHS-LC-Biotin in the ELISA; amine-coupled to a CM5 chip in SPR)
# T1 construct: also called biotinylated shFcRn
# T1 sequence (P55899 24-297 limits assumed, chain 1 of 2): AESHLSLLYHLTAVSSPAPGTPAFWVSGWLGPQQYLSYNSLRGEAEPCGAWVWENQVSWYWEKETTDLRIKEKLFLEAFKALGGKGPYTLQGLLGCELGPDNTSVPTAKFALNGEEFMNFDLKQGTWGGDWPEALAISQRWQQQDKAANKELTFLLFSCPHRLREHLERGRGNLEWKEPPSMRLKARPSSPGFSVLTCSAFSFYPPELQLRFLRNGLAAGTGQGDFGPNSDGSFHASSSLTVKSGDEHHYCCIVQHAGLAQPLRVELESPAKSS
# T1 sequence (P61769 21-119 limits assumed, chain 2 of 2): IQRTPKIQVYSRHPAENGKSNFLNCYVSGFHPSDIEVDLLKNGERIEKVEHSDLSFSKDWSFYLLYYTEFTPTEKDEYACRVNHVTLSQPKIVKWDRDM
# Experimental details: competition ELISA vs human IgG
Non-standard residues stand in square brackets, D forms with d. No end group written: not given here.
Report the value in µM with no unit label.

RFVTGHFG[dP]WYPA-NH2 (N-terminus assumed; SMILES CC(C)[C@H](NC(=O)[C@H](Cc1ccccc1)NC(=O)[C@@H](N)CCCNC(=N)N)C(=O)N[C@H](C(=O)NCC(=O)N[C@@H](Cc1c[nH]cn1)C(=O)N[C@@H](Cc1ccccc1)C(=O)NCC(=O)N1CCC[C@@H]1C(=O)N[C@@H](Cc1c[nH]c2ccccc12)C(=O)N[C@@H](Cc1ccc(O)cc1)C(=O)N1CCC[C@H]1C(=O)N[C@@H](C)C(N)=O)[C@@H](C)O) [Peptide No. 246] = 60

Give the value of IC50 reported for the following: RFVTGHFGXXYPA (Sar9; NMeLeu10; unbridged; C-terminal amide) [Peptide No. 236]
37

Give the value of IC50 reported for the following: RFXTGKFGXXYPC (Pen3; Sar9; NMeLeu10; disulfide; C-terminal amide) [Peptide No. 255]
40

Give the value of IC50 reported for the following: QRFCTGHFXXLYPCNGP (D-Ala9; D-Ala10; disulfide; C-terminal amide) [Peptide No. 24]
69
